This collection of values is drawn from paper PMC10249896.

system: PNCK Nano-luciferase fusion (Homo sapiens)
Construct: host or cells: HEK293
assayProcedure: NanoBRET Target Engagement Intracellular Kinase Assay, cell-based PNCK binding screen and dose response in HEK293 cells
measurementParameters: compound 10uM; HEK293; K10 tracer 1uM; normalized to staurosporine and DMSO; read-out: Avg. Normalized % Inhibition, 10uM, Nanobret
Output Met for inhibition at 10 µM not less than 30%; output Not met otherwise.

Worked examples follow.
> print(dat)
                                   molecule  assignedclass
1       c1ccc2c(-c3nnc(Sc4cnccn4)o3)cccc2c1            Met
2       c1ccc2c(c1)ccn2CCc1nc(-c2cnccn2)no1        Not met
3  O=C(O)c1n[nH]c2c1CN(C(=O)c1ccc(N3CCOCC3)cc1)CC2        Not met
4       Cc1nnc(SCCCn2c(=O)[nH]c3ccccc32)n1N            Met
5     Nn1c(SCc2ccc(Br)cc2)nnc(CCC(=O)O)c1=O        Not met

Now look at this one.
Identify whether the reported inhibition at 10 µM of the following molecule is 30% or greater: O=C(O)Cc1cc(C2CCN(C(=O)c3ccc(C(F)(F)F)nc3O)CC2)[nH]n1
Not met

====

system: PNCK Nano-luciferase fusion (Homo sapiens, UniProt Q6P2M8)
Construct: host or cells: HEK293
Sequence (Q6P2M8 whole entry, the tested form may be a part): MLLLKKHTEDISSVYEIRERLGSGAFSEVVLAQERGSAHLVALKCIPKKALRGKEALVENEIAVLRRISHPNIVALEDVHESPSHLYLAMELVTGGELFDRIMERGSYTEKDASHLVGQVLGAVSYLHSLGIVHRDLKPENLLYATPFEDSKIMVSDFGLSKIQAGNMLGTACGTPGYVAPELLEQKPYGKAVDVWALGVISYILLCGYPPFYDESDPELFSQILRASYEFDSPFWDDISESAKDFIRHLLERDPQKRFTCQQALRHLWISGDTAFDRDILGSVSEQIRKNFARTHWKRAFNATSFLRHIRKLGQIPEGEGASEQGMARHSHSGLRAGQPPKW
assayProcedure: NanoBRET Target Engagement Intracellular Kinase Assay, cell-based PNCK binding screen and dose response in HEK293 cells
measurementParameters: compound 1uM; HEK293; K10 tracer 1uM; normalized to staurosporine and DMSO; read-out: Avg. Normalized % Inhibition, 1uM, Nanobret
Threshold rule: inhibition at 1 µM greater than or equal to 1% is satisfied; below that, not satisfied.

Example results:
> print(dat)
                                   compound  assignedclass
1  O=c1oc2cc(OC3OC(CO)C(O)C(O)C3O)c(Cl)cc2c2c1CCCC2 (stereo not drawn)      satisfied
2  O=C(O)c1ccc(F)c(S(=O)(=O)Nc2ccc(-c3cnco3)cc2)c1  not satisfied
3     Nn1c(SCc2ccc(Br)cc2)nnc(CCC(=O)O)c1=O  not satisfied
4        Clc1nc(-c2cccnc2)nc2sc3c(c12)CCCC3      satisfied
5  CC(C)(C(=O)O)c1ccc(NS(=O)(=O)c2cc(F)c(F)cc2F)cc1  not satisfied
6       c1ccc2c(c1)ccn2CCc1nc(-c2cnccn2)no1  not satisfied
7  O=C1CN(C(=O)COc2ccc3c4c(c(=O)oc3c2)CCCCC4)CCN1      satisfied
8   O=C(O)CCc1nnc(SCc2c(Cl)cccc2Cl)[nH]c1=O  not satisfied

Is it the case that N#Cc1cnc(Sc2nnc(C3CCCCC3)o2)cn1 has inhibition at 1 µM reaching or exceeding 1%?
satisfied

Tell me whether inhibition at 1 µM is at least 1% here: O=C(O)c1ccc(-c2nc(O)c3c4c(sc3n2)CCCC4)cc1
satisfied

Item Cc1c(C(=O)O)sc2ncnc(NCc3nncn3CCc3ccccc3)c12 with inhibition at 1 µM of 1% or above?
satisfied

====

system: PNCK Nano-luciferase fusion (Homo sapiens, UniProt Q6P2M8)
Construct: host or cells: HEK293
assayProcedure: NanoBRET Target Engagement Intracellular Kinase Assay, cell-based PNCK binding screen and dose response in HEK293 cells
measurementParameters: compound 10uM; HEK293; K10 tracer 1uM; normalized to staurosporine and DMSO; read-out: Avg. Normalized % Inhibition, 10uM, Nanobret
inhibition at 10 µM reference
Lab book: enter the figure in %, no units written.

Here's what some known entries look like.
> print(dat)
                                   compound  measuredresult
1  CC1(C)CCc2c(sc(NC(=O)c3ccc(Cl)s3)c2C(N)=O)C1 [UM_260]            31.2
2  Cc1[nH]ccc1C(=O)NC1CCC(N2C(=O)CCC2=O)CC1 (stereo not drawn) [UM_211]               0
3  O=C1CN(C(=O)COc2ccc3c4c(c(=O)oc3c2)CCCCC4)CCN1 [UM_259]            84.1
4  O=C(O)CCc1nnc(SCc2c(Cl)cccc2Cl)[nH]c1=O [UM_193]               0
5  O=C1CCCN1CC(O)COc1ccc2c3c(c(=O)oc2c1)CCCCC3 (stereo not drawn) [UM_257]            48.6

Record Cc1ccc2[nH]c(SCc3cc(=O)n4ccccc4n3)nc2c1 [UM_197] , field inhibition at 10 µM: 27
